Test system: OVCAR-4 ovarian
Assay: NCI tumour cell line growth inhibition, 48 h
Measured TGI accompanies every entry in the list below.
value kind: TGI (µM)

compound | target or system | units label | censor symbol | assay result
O=C(CCl)Nc1cc(O)c2c(c1)C(=O)c1cccc(O)c1C2=O | OVCAR-4 ovarian | µM | = | 7.23
O=C1C[C@H](c2ccc(O)c(O)c2)Oc2cc(O)cc(O)c21 | OVCAR-4 ovarian | µM | > | 100
O=C1OC(=O)C2C1C(c1ccccc1[N+](=O)[O-])C=C(c1ccco1)N2c1ccncc1 (centres undefined) | OVCAR-4 ovarian | µM | = | 29.8
OCC(O)C(OC1OC(CO)C(O)C(O)C1O)c1nn(-c2ccccc2)c2nc3cc(Cl)ccc3nc12 (centres undefined) | OVCAR-4 ovarian | µM | > | 100

* * *

Test system: MDA-MB-435
Test: NCI tumour cell line growth inhibition, 48 h
This listing pairs compounds with measured TGI.
value kind: TGI

compound | assay result
Cc1ccc2c(c1)C(=O)c1c-2n(CCCN=[N+]=[N-])c(=O)c2cc([N+](=O)[O-])ccc12 | > 100 µM
C[N+](C)([O-])CCCNc1ccnc2cccc([N+](=O)[O-])c12 | > 100 µM
Nc1c(C(=O)Nc2cccc(Br)c2)sc2nc3c(cc12)C(O)CCC3 (stereo unspecified) | 0.35 µM
O=C(Nc1cccc(C(F)(F)F)c1)c1cc(Br)cc(Br)c1O | > 10 µM
CCc1nc(-n2c(-c3ccccc3)nc3ccccc3c2=O)nc(N)c1-c1ccc(Cl)cc1 | > 100 µM
CC(C)(C)C(=O)OCc1nc2cc3c(cc2c(=O)[nH]1)CCC3=O | > 100 µM
COc1ccc(C[C@@H]2OC3(C=CC(=O)C=C3)O[C@H]2Cc2ccc(OC)cc2)cc1 | 3.5 µM
Nc1ccc(-c2nc3ccccc3s2)cc1Br | > 100 µM
C=CC1(c2ccc(OC)cc2)OCCCO1 | > 100 µM
COc1ccc2[nH]c(O)c(/C=c3/cc4c(c(-c5ccc(F)cc5)n3)=Nc3ccccc3-4)c2c1 | 6.34 µM
O=C(NN=C1CCCCC1)NN=C1CCCCC1 | > 100 µM
Cc1sc2ncn(Cc3ccc(Cl)c(Cl)c3)c(=O)c2c1C | > 100 µM
Cc1cc(O)cc2c1c(=O)c1ccccc1n2C | > 100 µM
C=CCCC(=O)N1C=CC(=O)[C@H](O)[C@@H]1/C=C/c1ccccc1 | > 32.5 µM
CN1B(c2ccccc2)N(C)C(=O)N(C)C1=O | > 100 µM
Cc1nc2c(=O)[nH]c3ccc(Cl)cc3c2o1 | > 100 µM

* * *

Tested on: SNB-75 CNS
Experiment: NCI tumour cell line growth inhibition, 48 h
value kind: TGI (µM)

compound | value kind | censor symbol | assay result
C=CCC(CNC(=O)OCc1ccccc1)OC(=O)OCc1ccccc1 (configuration not stated) | TGI | > | 100
Oc1c(CN2CCOCC2)cc(COCc2ccccc2)c2cccnc12 | TGI | > | 100
CCCCCCCCCCCCCCCCP(=O)([O-])OCC[N+](C)(C)C | TGI | = | 29
CCOC(=O)CC[C@H](N)C(=O)N[C@H](Cc1ccc(N(CCCl)CCCl)cc1)C(=O)OCC | TGI | = | 5.89
CN1CCN(CCOc2ccc(-c3cnc4c(-c5ccc(F)cc5)cnn4c3)cc2)CC1 | TGI | = | 3.32
C#Cc1cc2c(N)c(C(=O)c3cc(OC)c(OC)c(OC)c3)[nH]c2cc1OC | TGI | = | 1.18
O=c1c2c3c(sc2n2c(-c4ccc(Br)cc4)nnc2n1Cc1ccccc1)CCCC3 | TGI | = | 22.1

* * *

System: SN12C renal
Experiment: NCI tumour cell line growth inhibition, 48 h

compound | TGI
COc1ccc(N2C(=O)C3CC4=CC(=O)C[C@H]4[C@H]32)cc1 (stereo partly drawn) | > 100 µM
CC(C)c1cccc(C(C)C)c1OS(=O)(=O)NC(=O)OC(C(F)(F)F)C(F)(F)F | > 100 µM
C[N+](C)(N)c1nc(N)c(C#N)c(C#N)c1C#N | > 10 µM
O=C(Nc1cccc(C(F)(F)F)c1)c1cc(Br)cc(Br)c1O | > 10 µM
C#CCOC(=O)C(N)CCSC (stereo not drawn) | > 100 µM
C=CCCC(=O)N1C=CC(=O)[C@H](O)[C@@H]1/C=C/c1ccccc1 | > 32.5 µM
CN(C)CC1CCCC/C1=N/OC(=O)c1ccc(Cl)c(Cl)c1 (stereo not drawn) | > 100 µM
Cc1ccc2c(c1)C(=O)c1c-2n(CCCN=[N+]=[N-])c(=O)c2cc([N+](=O)[O-])ccc12 | > 100 µM
Cc1ncc([N+](=O)[O-])n1CCNC(=O)CCCCCn1ccnc1[N+](=O)[O-] | > 100 µM
CC(=O)N1CCN(CCOc2ccc(C3CCN(C4=Nn5c(nnc5C(F)(F)F)CC4)CC3)cc2)CC1 | > 100 µM
NCP(=O)(O)OCC(=O)O | > 100 µM
CCc1nc(-n2c(-c3ccccc3)nc3ccccc3c2=O)nc(N)c1-c1ccc(Cl)cc1 | > 100 µM
Cc1ccc2c(=O)c(-c3n[nH]c(=S)s3)c[nH]c2n1 | > 100 µM

* * *

Tested on: UACC-62 melanoma
Test: NCI tumour cell line growth inhibition, 48 h; in the data active = GI50 below about 0.43 µM; inactive = the rest
Possible outcomes: class 1 (active), class 0 (inactive)

compound | target or system | category
O=C(Nc1cc(-c2cccnc2)nc(NCCCN2CCOCC2)n1)c1cc(Br)cc(C(F)(F)F)c1 | UACC-62 melanoma | class 0
COc1ccc(-c2c(N)n[nH]c2-c2cc(OC)c(OC)c(OC)c2)cc1 | UACC-62 melanoma | class 1
COc1cc(-c2nn(-c3ccc(NC(=O)c4cc(Cl)cc(Cl)c4)cc3)cc2-c2ccncc2)ccc1Cl | UACC-62 melanoma | class 0
CCCCCc1c(C)[nH]c(/C=C2\N=C(c3ccc[nH]3)C=C2OCc2ccccc2)c1C | UACC-62 melanoma | class 1
COc1c(N2CCN(Cn3c(O)c(N=NC(=O)c4ccncc4)c4cc(F)ccc43)C(C)C2)c(F)cc2c(=O)c(C(=O)O)cn(C3CC3)c12 (stereo not drawn) | UACC-62 melanoma | class 0
O=C(CCl)Nc1cc(O)c2c(c1)C(=O)c1cccc(O)c1C2=O | UACC-62 melanoma | class 0
O=[N+]([O-])c1cc(F)c2cccnc2c1O | UACC-62 melanoma | class 0
O=C(NCCCCOCC#Cc1ccccc1C#CCS(=O)(=O)c1ccccc1)c1cc2ccccc2[nH]1 | UACC-62 melanoma | class 0

* * *

Reported TGI values for the following compounds.
Test system: SF-539 CNS
Experiment: NCI tumour cell line growth inhibition, 48 h

compound | target or system | TGI
O=[N+]([O-])c1cc(F)c2cccnc2c1O | SF-539 CNS | > 100 µM
Cc1ncc([N+](=O)[O-])n1CCNC(=O)CCCCCn1ccnc1[N+](=O)[O-] | SF-539 CNS | > 100 µM
O=[N+]([O-])c1cc(Cl)ccc1S(=O)(=O)N1CCCc2cc(Cl)ccc21 | SF-539 CNS | > 100 µM
CC[C@H](NC(=O)[C@H](CS(=O)(=O)CC1CC1)N[C@@H](c1ccc(F)cc1)C(F)(F)F)C(=O)C(=O)NC1CC1 | SF-539 CNS | > 100 µM
CC(=O)O[C@H]1CC[C@H]2[C@@H]3CCC(C(C)=O)[C@H](C(=O)O)[C@H]3CC[C@]12C (stereo partly drawn) | SF-539 CNS | > 100 µM
COc1ccccc1NCC(=O)Nn1c(C)nc2ccc(S(=O)(=O)Nc3ccccc3OC)cc2c1=O | SF-539 CNS | > 100 µM
CN1B(c2ccccc2)N(C)C(=O)N(C)C1=O | SF-539 CNS | > 100 µM
OC(c1ccccc1)(c1cccnc1)C(O)(c1ccccc1)c1cccnc1 (stereo not drawn) | SF-539 CNS | > 100 µM
C=CCCC(=O)N1C=CC(=O)[C@H](O)[C@@H]1/C=C/c1ccccc1 | SF-539 CNS | > 32.5 µM
Nc1c(-c2nc3ccccc3[nH]2)sc(=S)n1-c1ccc(Cl)cc1 | SF-539 CNS | 37.2 µM
COCCNC1CCC2(SCCS2)c2[nH]c3ccccc3c21 (stereo not drawn) | SF-539 CNS | 50.7 µM
COC(=O)C1CC(C(=O)OC)c2nc3cc(C)c(C)cc3nc21 (stereo not drawn) | SF-539 CNS | > 100 µM
COc1ccc(-c2c(N)n[nH]c2-c2cc(OC)c(OC)c(OC)c2)cc1 | SF-539 CNS | 0.865 µM

* * *

Listing of recorded TGI by entry.
Tested on: SF-268 CNS
Test: NCI tumour cell line growth inhibition, 48 h
value kind: TGI (µM)

molecule | target or system | censor symbol | assay result
CCCCCCCCCCCCCCCCP(=O)([O-])OCC[N+](C)(C)C | SF-268 CNS | = | 34.1
COc1ccc2c(c1)OCCC1=C2SCC2(C)CCN=C12 (stereo not given) | SF-268 CNS | > | 100
OC(CN1CCCCC1)c1ccc(/C=C/c2ccc(Cl)cc2)cc1 (stereo not given) | SF-268 CNS | > | 100
Cc1cccc(NC2=NCCO2)c1Cl | SF-268 CNS | > | 100
CCOC(=O)CC[C@H](N)C(=O)N[C@H](Cc1ccc(N(CCCl)CCCl)cc1)C(=O)OCC | SF-268 CNS | = | 11.3
